assay: Substrate specificity of WNanoKAZ mutants, crude enzyme solution (Example 11); format: biochemical; conditions: substrate 6h-f-CTZ, Imax
assay_readout: Relative luminescence activity, 6h-f-CTZ, Imax
Answers are plain numbers.

Asked: Name the reported Relative luminescence activity, 6h-f-CTZ, Imax value associated with the molecule KAZ: 19 kDa protein of native Oplophorus luciferase having luminescence activity; SEQ ID NO: 2 (protein, listed as Oplophorus gracilirostris) FTLADFVGDWQQTAGYNQDQVLEQGGLSSLFQALGVSVTPIQKVVLSGENGLKADIHVIIPYEGLSGFQMGLIEMIFKVVYPVDDHHFKIILHYGTLVIDGVTPNMIDYFGRPYPGIAVFDGKQITVTGTLWNGNKIYDERLINPDGSLLFRVTINGVTGWRLCENILA
Given back: 0.3
